System: NF-κB pathway in THP-1 dual cells
Assay: THP-1 Dual Reporter Assay, NF-κB pathway (SEAP reporter)
Type: cell-based
Details: Homo sapiens, THP1-Dual, 18 h of stimulation, absorbance at 630 nm, read-out: THP1 Dual EC50 (μM) NFkB
Readout kind: EC50

• COc1cccc(-c2cc3occ(CN(CCCn4ccnc4)Cc4ccncc4)c(=O)c3cc2F)c1 [Example 57] = ≥ 20 µM
• O=c1c(CN(CCCn2ccnc2)Cc2ccncc2)coc2cc(Br)c(F)cc12 [Example 37] = ≤ 10 µM
• COc1cc(CN(CCCn2cnc3cncnc32)Cc2c(C)oc3cc(Br)c(F)cc3c2=O)ccn1 [Example 78] = ≤ 10 µM
• Cc1oc2cc(F)c(F)cc2c(=O)c1CN(CCCn1cnc2ccccc21)Cc1ccncc1 [Example 99] = ≤ 10 µM
• COc1cc(CN(CCCn2ccnc2)Cc2coc3cc(N4CCN(C)CC4)ccc3c2=O)ccn1 [Example 34] = 10 to 20 µM
• Cc1oc2cc(N3CCNCC3)c(F)cc2c(=O)c1CN(CCCc1cccnc1)Cc1ccncc1 [Example 69] = ≤ 10 µM
• Cc1cc(CN(CCCn2cnc3ccccc32)Cc2cn(C)c3ccccc3c2=O)ccn1 [Example 100] = ≤ 10 µM
• O=c1c(CN(CCCn2ccnc2)Cc2ccncc2)coc2cc(Br)ccc12 [Example 10] = 10 to 20 µM
